// data source = patent US7166598B2

Reported melting point is given for each of the following compounds.

COMPOUND	melting point
COC[C@H]1CCC[C@@H](COC)N1CCN1CCN(C(=O)c2cc(C(F)(F)F)cc(C(F)(F)F)c2)[C@H](Cc2ccc(C(F)(F)F)cc2)C1.Cl.Cl	147 to 151 °C
COc1cc(C(=O)N2CCN(Cc3cccnc3)C[C@H]2Cc2ccc(C(F)(F)F)cc2)cc(C(F)(F)F)c1.Cl.Cl	101 to 108 °C
Cc1ccc(C[C@@H]2CN(Cc3cnn(C)c3)CCN2C(=O)c2cc(C(F)(F)F)cc(C(F)(F)F)c2)cc1O.Cl	160 to 180 °C

Can you look up the measured melting point of COc1cc(C(=O)N2CCN(CCN3CCc4ncccc4C3)C[C@H]2Cc2ccc(F)cc2)cc(C(F)(F)F)c1.Cl.Cl.Cl for me?
148.7 to 152.3 °C

Can you look up the measured melting point of COC[C@@H]1CN(CCN2CCN(C(=O)c3cc(C(F)(F)F)cc(C(F)(F)F)c3)[C@H](Cc3ccc(C)c(NCN4C(=O)CCC4O)c3)C2)CCO1.Cl.Cl.Cl (some centres unmarked) for me?
163 to 176 °C

Can you look up the measured melting point of CO[C@H]1CN(CCN2CCN(C(=O)c3cc(C(F)(F)F)cc(C(F)(F)F)c3)[C@H](Cc3ccc(Cl)c(O)c3)C2)C[C@@H]1OC.Cl.Cl for me?
150 to 155 °C

Can you look up the measured melting point of COc1cc(C(=O)N2CCN(CC#CCN3CCOCC3(C)C)C[C@H]2Cc2ccc(Cl)c(O)c2)cc(C(F)(F)F)c1.Cl.Cl for me?
187 to 195 °C

Can you look up the measured melting point of CC1(C)COCCN1CC#CCN1CCN(C(=O)c2cc(C(F)(F)F)cc(C(F)(F)F)c2)[C@H](Cc2ccc(C(F)(F)F)cc2)C1.Cl.Cl for me?
110 to 130 °C

Can you look up the measured melting point of COC[C@@H]1CN(CCN2CCN(C(=O)c3cc(C(F)(F)F)cc(C(F)(F)F)c3)[C@H](Cc3ccc(F)c(OC)c3)C2)CCO1.Cl.Cl for me?
180 to 190 °C

Can you look up the measured melting point of C[C@@H]1CN(CCN2CCN(C(=O)c3cc(Cl)cc(C(F)(F)F)c3)[C@H](Cc3ccc(Cl)cc3)C2)C[C@H](C)O1.Cl.Cl for me?
136.4 to 141 °C

---

Reported melting point is given for each of the following compounds.

These recorded examples may help you get a feel for the data.
Cl.Cn1cc(CN2CCN(C(=O)c3cc(C(F)(F)F)cc(C(F)(F)F)c3)[C@H](Cc3ccc(F)c(O)c3)C2)cn1 160 to 170 °C
COc1cc(C(=O)N2CCN(CC#CCN3CCOCC3(C)C)C[C@H]2Cc2c[nH]c3ccccc23)cc(C(F)(F)F)c1.Cl.Cl 190 to 200 °C
C[C@@H]1CN(CCN2CCN(C(=O)c3cc(Cl)cc(Cl)c3)[C@H](Cc3ccc(Cl)cc3)C2)C[C@H](C)O1.Cl.Cl 140.1 to 143.8 °C
COc1cc(C[C@@H]2CN(CCN3CCC(F)(F)CC3)CCN2C(=O)c2cc(C(F)(F)F)cc(C(F)(F)F)c2)ccc1F.Cl.Cl 240 to 243 °C
Cl.Cn1cc(CN2CCN(C(=O)c3cc(C(F)(F)F)cc(C(F)(F)F)c3)[C@H](Cc3ccc(Cl)cc3)C2)cn1 210 to 245 °C (dec.)

Can you look up the measured melting point of CS(=O)(=O)c1cc(C(=O)N2CCN(CCN3CCc4ncccc4C3)C[C@H]2Cc2ccc(C(F)(F)F)cc2)cc(C(F)(F)F)c1.Cl.Cl.Cl for me?
192 to 197 °C

Can you look up the measured melting point of C[C@@H]1CN(CCN2CCN(C(=O)c3cc(-n4cccc4)cc(C(F)(F)F)c3)[C@H](Cc3ccc(Cl)cc3)C2)C[C@H](C)O1.Cl.Cl for me?
152.7 to 157.9 °C

---

ASSAY ENDPOINT: melting point

These recorded examples may help you get a feel for the data.
COMPOUND	melting point
COc1cc(C[C@@H]2CN(CCN3CCc4ncccc4C3)CCN2C(=O)c2cc(-c3ccncc3)cc(C(F)(F)F)c2)ccc1F.Cl.Cl.Cl.Cl	236.8 to 248.5 °C
COc1cc(C(=O)N2CCN(CCN3C[C@@H](C)O[C@@H](C)C3)C[C@H]2Cc2ccc(C(F)(F)F)cc2)cc(C(F)(F)F)c1.Cl.Cl	139 to 151 °C
COc1cc(C[C@@H]2CN(CCN3CCc4ncccc4C3)CCN2C(=O)c2cc(C(F)(F)F)cc(C(F)(F)F)c2)ccc1F.Cl.Cl.Cl	175 to 185 °C
COc1cc(C(=O)N2CCN(Cc3cccnc3)C[C@H]2Cc2ccc(Cl)cc2)cc(C(F)(F)F)c1.Cl.Cl	60 to 80 °C

Can you look up the measured melting point of CN(C)S(=O)(=O)c1cc(C(=O)N2CCN(CCN3CCc4ncccc4C3)C[C@H]2Cc2ccc(C(F)(F)F)cc2)cc(C(F)(F)F)c1.Cl.Cl.Cl for me?
190 to 194 °C

Can you look up the measured melting point of COC[C@@H]1COCCN1CCN1CCN(C(=O)c2cc(C(F)(F)F)cc(C(F)(F)F)c2)C(Cc2ccc(C)c(O)c2)C1.Cl.Cl (some centres unmarked) for me?
167 to 172 °C

Can you look up the measured melting point of COC[C@@H]1CN(CCN2CCN(C(=O)c3cc(Cl)cc(C(F)(F)F)c3)[C@H](Cc3ccc(F)c(OC)c3)C2)CCO1.Cl.Cl for me?
139 to 142 °C

Can you look up the measured melting point of COC[C@@H]1CN(CCN2CCN(C(=O)c3cc(-c4ccncc4)cc(C(F)(F)F)c3)[C@H](Cc3ccc(C(F)(F)F)cc3)C2)CCO1.Cl.Cl.Cl for me?
81 to 91 °C

Can you look up the measured melting point of Cl.Cl.O=C(c1cc(C(F)(F)F)cc(C(F)(F)F)c1)N1CCN(CCCc2cccnc2)C[C@H]1Cc1ccc(F)c(O)c1 for me?
80 to 95 °C

Can you look up the measured melting point of Cl.Cl.O=C(c1cc(C(F)(F)F)cc(C(F)(F)F)c1)N1CCN(Cc2c[nH]c3ncccc23)C[C@H]1Cc1ccc(Cl)c(O)c1 for me?
197 to 200 °C

---

ASSAY ENDPOINT: melting point

Cl.Cl.O=C(c1cc(C(F)(F)F)cc(C(F)(F)F)c1)N1CCN(CCCc2cccnc2)C[C@H]1Cc1ccc(C(F)(F)F)cc1 64 to 74 °C
COc1cc(C(=O)N2CCN(CCN3C[C@@H](C)O[C@@H](C)C3)C[C@H]2Cc2ccc(C(F)(F)F)c(OC)c2)cc(C(F)(F)F)c1.Cl.Cl 125 to 135 °C
COc1cc(C(=O)N2CCN(CCN3CCc4ncccc4C3)C[C@H]2Cc2c[nH]c3ccccc23)cc(C(F)(F)F)c1.Cl.Cl.Cl 180 to 190 °C
COc1cc(C(=O)N2CCN(Cc3cnn(C)c3)C[C@H]2Cc2ccc(Cl)cc2)cc(C(F)(F)F)c1.Cl 70 to 100 °C
Cc1ccc(C[C@@H]2CN(Cc3csc(N)n3)CCN2C(=O)c2cc(C(F)(F)F)cc(C(F)(F)F)c2)cc1O.Cl.Cl 205 to 215 °C
Cc1ccc(C[C@@H]2CN(CCN3CCc4ncccc4C3)CCN2C(=O)c2cc(C(F)(F)F)cc(C(F)(F)F)c2)cc1O.Cl.Cl.Cl 255 to 270 °C

Lab note: next compound to report on.
Can you look up the measured melting point of Cl.Cn1cc(CN2CCN(C(=O)c3cc(C(F)(F)F)cc(C(F)(F)F)c3)[C@H](Cc3ccc4ccccc4c3)C2)cn1 for me?
> 250 °C

---

Reported melting point is given for each of the following compounds.

COC[C@@H]1CN(CCN2CCN(C(=O)c3cc(SC)cc(C(F)(F)F)c3)[C@H](Cc3ccc(F)c(OC)c3)C2)CCO1.Cl.Cl 132 to 135 °C
COc1cc(C(=O)N2CCN(CCN3C[C@@H](C)O[C@@H](C)C3)C[C@H]2Cc2c[nH]c3ccccc23)cc(C(F)(F)F)c1.Cl.Cl 188 to 200 °C
Cl.Cl.O=C(c1cc(C(F)(F)F)cc(C(F)(F)F)c1)N1CCN(CCN2CCC(F)(F)CC2)C[C@H]1Cc1ccc2ccccc2c1 > 250 °C
CSc1cc(C(=O)N2CCN(CCN3C[C@@H](C)O[C@@H](C)C3)C[C@H]2Cc2ccc(Cl)cc2)cc(C(F)(F)F)c1.Cl.Cl 138.4 to 142.5 °C
CNc1cc(C(=O)N2CCN(CCN3CCc4ncccc4C3)C[C@H]2Cc2ccc(Cl)cc2)cc(C(F)(F)F)c1.Cl.Cl.Cl 199 to 245 °C

Can you look up the measured melting point of COC[C@@H]1CN(CCN2CCN(C(=O)c3cc(C(F)(F)F)cc(C(F)(F)F)c3)[C@H](Cc3ccc(F)c(O)c3)C2)CCO1.Cl.Cl for me?
156 to 168 °C

Can you look up the measured melting point of COC[C@@H]1CN(CC#CCN2CCN(C(=O)c3cc(C(F)(F)F)cc(C(F)(F)F)c3)[C@H](Cc3ccc(C)c(O)c3)C2)CCO1.Cl.Cl for me?
110 to 130 °C
